// data source = ChEMBL document CHEMBL6083286

Target: UniProt Q96SW2
metric name: pIC50
Recall that pIC50 is obtained by taking minus log10 of the concentration measured in molar.

Suppose we examine the compound O=C1CC[C@H](N2Cc3c(ccc4c3OCC43CCNCC3)C2=O)C(=O)N1 ; what pIC50 value has been reported?
6.64

* * *

Assay: Drug concentration in SCID mouse tumor at 10 mg/kg, po administered once daily measured at 24 hrs by LC-MS/MS analysis
Assay type: ADME, organism-based, Neoplasm
Settings: read-out: Ct
metric name: concentration at 24 h
Numeric answer plus unit only.

Given the entry O=C1CC[C@H](N2Cc3c(ccc4c3OCC43CCN(C[C@@H]4CCC5(CCN(c6ccc([C@@H]7c8ccc(O)cc8CC[C@@H]7c7ccccc7)cc6)CC5)OC4)CC3)C2=O)C(=O)N1 , report its measured concentration at 24 h.
94 ng/mL

* * *

Target: Protein cereblon/Estrogen receptor (Homo sapiens, UniProt P03372+Q96SW2)
Assay: PROTAC activity at CRBN/ERalpha in human MCF7 cells assessed as reduction in ERalpha protein level measured after 12 hrs by Western blot analysis relative to control
Type: cell-based
Sequence (P03372 whole entry, looked up): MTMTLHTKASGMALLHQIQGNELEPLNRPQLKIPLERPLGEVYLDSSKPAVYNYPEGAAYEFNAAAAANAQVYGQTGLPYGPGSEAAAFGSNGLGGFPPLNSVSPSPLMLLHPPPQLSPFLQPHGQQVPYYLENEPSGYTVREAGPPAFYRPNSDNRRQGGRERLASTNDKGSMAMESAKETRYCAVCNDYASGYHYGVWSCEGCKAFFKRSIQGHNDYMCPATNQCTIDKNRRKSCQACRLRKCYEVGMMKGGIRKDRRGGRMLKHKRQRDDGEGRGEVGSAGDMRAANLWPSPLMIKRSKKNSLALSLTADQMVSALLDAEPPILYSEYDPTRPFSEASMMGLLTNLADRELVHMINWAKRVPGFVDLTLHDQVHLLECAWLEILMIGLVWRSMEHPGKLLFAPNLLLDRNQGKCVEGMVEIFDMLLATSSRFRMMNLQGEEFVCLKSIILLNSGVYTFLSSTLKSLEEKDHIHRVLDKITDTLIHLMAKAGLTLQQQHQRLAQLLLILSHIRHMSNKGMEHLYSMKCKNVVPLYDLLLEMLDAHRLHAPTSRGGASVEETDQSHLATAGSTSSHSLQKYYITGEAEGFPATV
Sequence (Q96SW2 whole entry, looked up): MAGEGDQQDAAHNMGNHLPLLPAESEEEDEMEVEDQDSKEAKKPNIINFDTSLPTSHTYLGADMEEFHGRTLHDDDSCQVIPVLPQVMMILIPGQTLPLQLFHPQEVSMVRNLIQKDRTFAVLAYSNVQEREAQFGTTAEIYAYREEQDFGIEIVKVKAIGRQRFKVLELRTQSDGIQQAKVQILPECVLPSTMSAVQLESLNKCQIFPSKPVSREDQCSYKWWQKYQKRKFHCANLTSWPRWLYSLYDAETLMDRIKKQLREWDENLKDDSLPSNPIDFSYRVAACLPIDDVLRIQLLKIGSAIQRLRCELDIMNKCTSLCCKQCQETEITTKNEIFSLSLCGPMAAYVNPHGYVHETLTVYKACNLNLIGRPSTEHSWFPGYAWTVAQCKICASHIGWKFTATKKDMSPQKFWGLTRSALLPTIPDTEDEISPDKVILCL
metric name: Emax (%)
# output: bare number, implied unit %

// below: answered molecules
molecule | Emax (%)
O=C1CC[C@H](N2Cc3c(ccc4c3OCC43CCN(CC4CC5(CCN(c6ccc([C@@H]7c8ccc(O)cc8CC[C@@H]7c7ccccc7)cc6)CC5)C4)CC3)C2=O)C(=O)N1 | 87
O=C1CC[C@H](N2Cc3c(ccc4c3OCC43CCN(C(=O)C4CCN(c5ccc([C@@H]6c7ccc(O)cc7CC[C@@H]6c6ccccc6)cc5)CC4)CC3)C2=O)C(=O)N1 | 82
O=C1CC[C@H](N2Cc3c(ccc4c3OCC43CCN(CC(=O)N4CCC5(CC4)CN(c4ccc([C@@H]6c7ccc(O)cc7CC[C@@H]6c6ccccc6)cc4)C5)CC3)C2=O)C(=O)N1 | 102
O=C1CC[C@H](N2Cc3c(ccc4c3OCC43CCN(C[C@H]4CCC5(CCN(c6ccc([C@@H]7c8ccc(O)cc8CC[C@@H]7c7ccccc7)cc6)CC5)OC4)CC3)C2=O)C(=O)N1 | 100

Would you kindly look at the next entry?
Field: Emax (Protein cereblon/Estrogen receptor (Homo sapiens, UniProt P03372+Q96SW2)). Entry: O=C1CC[C@H](N2Cc3c(ccc4c3OCC43CCN(CC4CC5(CCN(c6ccc([C@@H]7c8ccc(O)cc8CC[C@@H]7c7ccccc7)cc6)CC5)CO4)CC3)C2=O)C(=O)N1 (stereo not given in full)
94

* * *

Molecular target: UniProt P10632
Sequence (P10632 whole entry): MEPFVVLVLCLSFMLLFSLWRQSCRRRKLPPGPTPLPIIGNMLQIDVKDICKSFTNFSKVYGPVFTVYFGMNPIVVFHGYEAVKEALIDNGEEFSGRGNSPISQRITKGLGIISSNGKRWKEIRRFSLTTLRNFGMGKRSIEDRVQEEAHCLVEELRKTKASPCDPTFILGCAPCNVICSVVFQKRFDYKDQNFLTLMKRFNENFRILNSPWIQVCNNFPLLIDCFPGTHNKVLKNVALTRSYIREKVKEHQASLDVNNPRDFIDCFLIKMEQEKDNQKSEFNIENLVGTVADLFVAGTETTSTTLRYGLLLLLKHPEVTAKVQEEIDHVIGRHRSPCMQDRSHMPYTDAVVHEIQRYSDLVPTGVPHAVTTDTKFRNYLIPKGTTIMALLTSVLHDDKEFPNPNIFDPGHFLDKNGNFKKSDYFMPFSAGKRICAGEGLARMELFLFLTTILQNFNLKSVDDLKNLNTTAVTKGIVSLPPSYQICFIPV
metric name: IC50

Item O=C1CC[C@H](N2Cc3c(ccc4c3OCC43CCN(C[C@@H]4CCC5(CCN(c6ccc([C@@H]7c8ccc(O)cc8CC[C@@H]7c7ccccc7)cc6)CC5)OC4)CC3)C2=O)C(=O)N1 with UniProt P10632 - IC50?
> 10 µM

* * *

Recorded log10 DC50 values for a group of molecules are listed next.
Target: Protein cereblon/Estrogen receptor (Homo sapiens, UniProt P03372+Q96SW2)
Assay: PROTAC activity at CRBN/ERalpha in human MCF7 cells assessed as reduction in ERalpha protein level measured after 12 hrs by Western blot analysis
Format: cell-based
Sequence (P03372 whole entry): as the sequence (P03372 whole entry, looked up) above
Sequence (Q96SW2 whole entry): as the sequence (Q96SW2 whole entry, looked up) above
Values are log10 of DC50 in nM.

Example entries and their recorded answers appear below.
molecule | log10 DC50
O=C1CC[C@H](N2Cc3c(ccc4c3OCC43CCN(CCCCCC4CCN(c5ccc([C@@H]6c7ccc(O)cc7CC[C@@H]6c6ccccc6)cc5)CC4)CC3)C2=O)C(=O)N1 | -0.38
O=C1CC[C@H](N2Cc3c(ccc4c3OCC43CCN(CC(=O)N4CCCC5(CCN(c6ccc([C@@H]7c8ccc(O)cc8CC[C@@H]7c7ccccc7)cc6)CC5)C4)CC3)C2=O)C(=O)N1 | -1.54
O=C1CC[C@H](N2Cc3c(ccc4c3OCC43CCN(C(=O)CC4CCN(c5ccc([C@@H]6c7ccc(O)cc7CC[C@@H]6c6ccccc6)cc5)CC4)CC3)C2=O)C(=O)N1 | -1.60
O=C1CC[C@H](N2Cc3c(ccc4c3OCC43CCN(C[C@H]4CCC5(CCN(c6ccc([C@@H]7c8ccc(O)cc8CC[C@@H]7c7ccccc7)cc6)CC5)OC4)CC3)C2=O)C(=O)N1 | -0.85
O=C1CC[C@H](N2Cc3c(ccc4c3OCC43CCN(CCCCC4CCN(c5ccc([C@@H]6c7ccc(O)cc7CC[C@@H]6c6ccccc6)cc5)CC4)CC3)C2=O)C(=O)N1 | -1.51

# evaluate next
Which log10 DC50 reading was recorded for the molecule O=C1CC[C@H](N2Cc3c(ccc4c3OCC43CCN(CC4CCC5(CCN(c6ccc([C@@H]7c8ccc(O)cc8CC[C@@H]7c7ccccc7)cc6)CC5)OC4)CC3)C2=O)C(=O)N1 (stereo partly specified) ?
-0.86
